Data credit: patent US6436933B1

target: UniProt:P15917; assay: biochemical; assay type: biochemical
Sequence (P15917 34-809 limits assumed): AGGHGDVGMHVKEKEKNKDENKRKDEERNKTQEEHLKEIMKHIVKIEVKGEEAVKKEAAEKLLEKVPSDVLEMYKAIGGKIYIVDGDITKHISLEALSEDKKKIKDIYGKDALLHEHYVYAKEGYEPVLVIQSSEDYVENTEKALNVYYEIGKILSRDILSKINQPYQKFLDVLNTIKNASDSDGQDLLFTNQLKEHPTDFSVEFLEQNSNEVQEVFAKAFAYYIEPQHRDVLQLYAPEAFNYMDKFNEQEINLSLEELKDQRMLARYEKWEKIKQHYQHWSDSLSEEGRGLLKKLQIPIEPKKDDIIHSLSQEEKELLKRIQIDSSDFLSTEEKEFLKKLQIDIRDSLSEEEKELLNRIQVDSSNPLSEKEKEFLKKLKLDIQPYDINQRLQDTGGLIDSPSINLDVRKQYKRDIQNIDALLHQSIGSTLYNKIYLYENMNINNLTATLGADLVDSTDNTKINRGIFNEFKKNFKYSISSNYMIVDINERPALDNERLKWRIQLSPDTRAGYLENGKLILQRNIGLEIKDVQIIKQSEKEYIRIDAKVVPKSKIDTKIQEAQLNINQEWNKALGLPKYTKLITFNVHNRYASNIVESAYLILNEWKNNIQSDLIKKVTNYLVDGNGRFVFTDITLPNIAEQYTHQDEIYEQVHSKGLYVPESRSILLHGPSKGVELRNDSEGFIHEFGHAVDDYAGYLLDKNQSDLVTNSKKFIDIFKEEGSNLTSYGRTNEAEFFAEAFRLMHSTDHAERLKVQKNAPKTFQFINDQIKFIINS
property-label: Activity by plate, % @ 100 (% @ 100)
Give just the number in % @ 100; leave the unit off.

stdin: Name the recorded Activity by plate, % @ 100 of the compound listed here: Cc1ccc(-c2cn(O)c(=O)c(Cc3ccc(-c4ccccc4)cc3)n2)cc1 [Compound 46]
stdout: 46

stdin: Name the recorded Activity by plate, % @ 100 of the compound listed here: O=c1c(Cc2ccccc2)nc(-c2ccc(-c3ccccc3)cc2)cn1O [Compound 17]
stdout: 41

stdin: Name the recorded Activity by plate, % @ 100 of the compound listed here: O=c1c(Cc2ccccc2)nc(-c2ccc(C(F)(F)F)cc2)cn1O [Compound 43]
stdout: 0

stdin: Name the recorded Activity by plate, % @ 100 of the compound listed here: O=c1c(Cc2ccccc2)nc(-c2ccc([N+](=O)[O-])cc2)cn1O [Compound 23]
stdout: 7

stdin: Name the recorded Activity by plate, % @ 100 of the compound listed here: O=c1c(Cc2ccc(-c3ccccc3)cc2)nc(-c2ccc(Cl)c(Cl)c2)cn1O [Compound 44]
stdout: 45

stdin: Name the recorded Activity by plate, % @ 100 of the compound listed here: O=c1c(Cc2ccccc2)nc(-c2ccc(N3CCOCC3)cc2)cn1O [Compound 14]
stdout: 0

New cases:
stdin: Name the recorded Activity by plate, % @ 100 of the compound listed here: CCCCCc1ccc(-c2cn(O)c(=O)c(Cc3ccc(-c4ccccc4)cc3)n2)cc1 [Compound 47]
stdout: 39

stdin: Name the recorded Activity by plate, % @ 100 of the compound listed here: O=c1c(Cc2ccccc2)nc(-c2ccc3ccccc3c2)cn1O [Compound 19]
stdout: 59

stdin: Name the recorded Activity by plate, % @ 100 of the compound listed here: O=c1c(Cc2ccc(-c3ccccc3)cc2)nc(-c2ccc3c(c2)OCO3)cn1O [Compound 32]
stdout: 40
